- TARGET: T1, CTLA-4-hFc (immunogen A; hFc-labeled CTLA-4 extracellular domain protein) (human, UniProt P16410 36-161)
- T1 construct: range 36-161; Made in HEK293 cells, purified on protein A; also called CLTA-4-hFc; CTLA-4 protein; not shown: human IgG Fc fragment (hFc) of the pCpC vector
- T1 sequence (looked up): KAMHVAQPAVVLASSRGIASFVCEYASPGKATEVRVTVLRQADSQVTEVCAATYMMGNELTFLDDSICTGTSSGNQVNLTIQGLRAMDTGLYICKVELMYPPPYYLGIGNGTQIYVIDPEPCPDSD
- EXPERIMENT SUMMARY: ELISA, coated CTLA-4-hFc, competitor biotin-B7.2-hFc
The entries below come with measured Inhibition rate (%) at 66.7 nM values attached.
Write the numeric value and append its unit.

Given the binder 31C12F3 (chimeric antibody purified from hybridoma supernatant) (antibody, V domains shown, also called mAb010) VH: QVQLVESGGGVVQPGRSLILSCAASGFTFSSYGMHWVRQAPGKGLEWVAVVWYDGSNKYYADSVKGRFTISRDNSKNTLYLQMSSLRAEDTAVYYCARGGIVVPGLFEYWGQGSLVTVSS VL: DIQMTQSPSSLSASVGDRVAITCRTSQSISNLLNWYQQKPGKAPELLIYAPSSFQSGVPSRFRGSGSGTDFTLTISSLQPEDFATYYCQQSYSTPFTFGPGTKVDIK , write its reported Inhibition rate (%) at 66.7 nM.
92.8%

Identify Inhibition rate (%) at 66.7 nM associated with the binder 92C8B6 (chimeric antibody purified from hybridoma supernatant) (antibody, V domains shown, also called mAb42; mAb042) VH: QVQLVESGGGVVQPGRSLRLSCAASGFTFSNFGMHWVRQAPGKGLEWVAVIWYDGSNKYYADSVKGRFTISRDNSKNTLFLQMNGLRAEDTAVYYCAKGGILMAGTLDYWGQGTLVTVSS VL: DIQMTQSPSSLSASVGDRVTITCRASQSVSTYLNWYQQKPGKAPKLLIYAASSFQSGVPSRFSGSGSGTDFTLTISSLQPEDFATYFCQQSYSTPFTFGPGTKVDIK
95%

For the binder 40C4C6 (chimeric antibody purified from hybridoma supernatant) (antibody, V domains shown, also called mAb09; mAb009) VH: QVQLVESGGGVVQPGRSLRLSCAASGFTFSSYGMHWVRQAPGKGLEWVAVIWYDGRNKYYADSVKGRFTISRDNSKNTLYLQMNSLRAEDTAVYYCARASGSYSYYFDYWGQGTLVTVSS VL: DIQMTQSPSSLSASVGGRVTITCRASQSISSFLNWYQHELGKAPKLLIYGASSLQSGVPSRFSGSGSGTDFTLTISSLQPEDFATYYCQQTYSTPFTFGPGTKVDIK , give its reported Inhibition rate (%) at 66.7 nM.
88.7%

Please indicate Inhibition rate (%) at 66.7 nM recorded for 97A8D1 (chimeric antibody purified from hybridoma supernatant) (antibody, V domains shown, also called mAb49; mAb049) VH: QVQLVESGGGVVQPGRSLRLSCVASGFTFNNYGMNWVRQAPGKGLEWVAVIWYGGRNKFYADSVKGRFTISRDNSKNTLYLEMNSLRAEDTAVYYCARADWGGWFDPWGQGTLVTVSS VL: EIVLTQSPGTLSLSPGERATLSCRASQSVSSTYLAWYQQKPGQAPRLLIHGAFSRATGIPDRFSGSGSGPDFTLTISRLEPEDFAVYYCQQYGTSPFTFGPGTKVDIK
95%
